For each of the compounds below, state its GI50.
# System: A549
# assay.summary: NCI tumour cell line growth inhibition, 48 h
The source made the active and inactive calls. Rule as the data show it: active = GI50 up to about 1.1 µM and inactive = higher.

compound	system.under.test	GI50
NC(=O)c1csc(C2CCC(CO)O2)n1 (stereo unspecified)	A549	> 100 µM (inactive)
COC(=O)C(=O)C(C(=O)C=C(C)C)C(=O)C(=O)Nc1ccc(C)cc1C (stereo unspecified)	A549	> 100 µM (inactive)
CNn1c(-c2ccc(C)cc2)n[nH]c1=O	A549	> 100 µM (inactive)
NS(=O)(=O)c1nnc(NS(=O)(=O)c2ccccc2C(=O)O)s1	A549	> 100 µM (inactive)
CC(NS(C)(=O)=O)c1ccccc1 (stereo unspecified)	A549	> 100 µM (inactive)

**Q:** GI50 for "CCN(CC)C(=S)/N=C(\SC(=S)N(CC)CC)c1ccccc1" ?
**A:** 20.8 µM (inactive)
